Where do these numbers come from? They come from ChEMBL document CHEMBL3877294.

Test system: Nonstructural protein 5A (Hepatitis C virus), Q5L478 [Y93H]
Sequence (Q5L478 entry or part of it Y93H): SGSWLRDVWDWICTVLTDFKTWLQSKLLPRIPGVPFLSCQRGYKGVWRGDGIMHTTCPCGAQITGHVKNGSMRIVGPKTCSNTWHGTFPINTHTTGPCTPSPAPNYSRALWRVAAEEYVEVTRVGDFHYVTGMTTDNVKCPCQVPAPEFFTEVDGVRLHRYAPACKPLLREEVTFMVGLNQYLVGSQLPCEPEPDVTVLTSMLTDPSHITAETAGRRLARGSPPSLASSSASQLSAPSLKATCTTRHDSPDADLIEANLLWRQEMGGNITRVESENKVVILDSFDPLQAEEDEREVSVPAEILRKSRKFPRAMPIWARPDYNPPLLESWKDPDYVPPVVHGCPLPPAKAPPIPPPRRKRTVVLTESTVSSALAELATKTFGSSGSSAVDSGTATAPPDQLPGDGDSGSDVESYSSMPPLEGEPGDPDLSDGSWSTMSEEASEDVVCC
Test: Inhibition of HCV genotype-1a NS5A Y93H mutant infected in human HuH7 cells by luciferase reporter gene assay
Type: cell-based
Details: Hepatitis C virus subtype 1a; Huh-7
Entries annotated with measured EC90
Write the number in nM without appending the unit.

Observe how each entry below is paired with its result.
{"columns": ["COMPOUND", "TARGET UNDER TEST", "RESULT UNIT", "EC90"],
 "data": [
  ["COC(=O)N[C@H](C(=O)N1CCC[C@H]1c1ncc(-c2cc(F)c3c(c2)OC(c2cc(C4CC4)cs2)n2c-3cc3cc(-c4cnc([C@@H]5CCCN5C(=O)[C@@H](NC(=O)OC)C(C)C)[nH]4)ccc32)[nH]1)C(C)C (some centres undefined)", "Nonstructural protein 5A (Hepatitis C virus), Q5L478 [Y93H]", "nM", 1.74],
  ["COCc1ncc(C2Oc3cc(-c4cnc([C@@H]5CCCN5C(=O)[C@@H](NC(=O)OC)C(C)C)[nH]4)cc(F)c3-c3cc4cc(-c5cnc([C@@H]6CCCN6C(=O)[C@@H](NC(=O)OC)C(C)C)[nH]5)ccc4n32)s1 (some centres undefined)", "Nonstructural protein 5A (Hepatitis C virus), Q5L478 [Y93H]", "nM", 0.04],
  ["COC(=O)N[C@H](C(=O)N1CCC[C@H]1c1ncc(-c2ccc3c(c2)OC(c2ccc(Cl)s2)n2c-3cc3cc(-c4cnc([C@@H]5CCCN5C(=O)[C@@H](NC(=O)OC)C(C)C)[nH]4)ccc32)[nH]1)C(C)C (mixture of isomers)", "Nonstructural protein 5A (Hepatitis C virus), Q5L478 [Y93H]", "nM", 4]
]}

// next entry
So what EC90 did COC(=O)N[C@H](C(=O)N1CCC[C@H]1c1ncc(-c2cc(F)c3c(c2)OC(c2nc(C4CC4)cs2)n2c-3cc3cc(-c4cnc([C@@H]5CCCN5C(=O)[C@@H](NC(=O)OC)C(C)C)[nH]4)ccc32)[nH]1)C(C)C (some centres undefined) get with Nonstructural protein 5A (Hepatitis C virus), Q5L478 [Y93H]? 2.6

---

Test system: Nonstructural protein 5A (Hepatitis C virus), Q5L478 [Y93H]
Assay: Inhibition of HCV genotype-1a NS5A Y93H mutant infected in human HuH7 cells by luciferase reporter gene assay
Assay type: cell-based
Conditions: Hepatitis C virus subtype 1a; Huh-7
Entries annotated with measured EC90
Numbers only here, please. The scale is nM.

{"columns": ["COMPOUND", "EC90, nM"],
 "data": [
  ["COC(=O)N[C@H](C(=O)N1CCC[C@H]1c1ncc(-c2cc(F)c3c(c2)OC(c2cnc(C4(C)CC4)s2)n2c-3cc3cc(-c4cnc([C@@H]5C[C@H]6C[C@H]6N5C(=O)[C@@H](NC(=O)OC)C(C)C)[nH]4)ccc32)[nH]1)C(C)C (some centres undefined)", 0.02],
  ["COC(=O)N[C@H](C(=O)N1CCC[C@H]1c1ncc(-c2cc(F)c3c(c2)OC(c2cc(F)c(C4CC4)s2)n2c-3cc3cc(-c4cnc([C@@H]5CCCN5C(=O)[C@@H](NC(=O)OC)C(C)C)[nH]4)ccc32)[nH]1)C(C)C (some centres undefined)", 0.17],
  ["COC(=O)N[C@H](C(=O)N1CCC[C@H]1c1ncc(-c2cc(F)c3c(c2)OC(c2ccc(C(F)F)s2)n2c-3cc3cc(-c4cnc([C@@H]5CCCN5C(=O)[C@@H](NC(=O)OC)C(C)C)[nH]4)ccc32)[nH]1)C(C)C (some centres undefined)", 0.14]
]}

Below: the item to evaluate.
GET /values?readout=EC90&item= COC(=O)N[C@H](C(=O)N1CCC[C@H]1c1ncc(-c2cc(F)c3c(c2)OC(c2cnns2)n2c-3cc3cc(-c4cnc([C@@H]5CCCN5C(=O)[C@@H](NC(=O)OC)C(C)C)[nH]4)ccc32)[nH]1)C(C)C (some centres undefined) 0.36
